test_name: in vitro
test_conditions: human, liver microsomes
Lab note - cut at 10 µL/min/mg for microsomal CLint: Y if strictly below, N if not.

Criterion: microsomal CLint strictly below 10 µL/min/mg. Is it met by Cc1ccc(NC(=O)c2cscn2)cc1-n1cnc2ccc(N3CCN(C)CC3)cc2c1=O ? Y

Another compound to check: COc1ccc(OC)c(CNc2[nH]nc3cccc(Oc4ccccc4)c23)c1 N

And for C[C@H](CO)Nc1nc(SCc2ccco2)nc2nc(N)sc12 ? Y

Here is the next compound: Cc1ccc(NC(=O)c2cccc(N3CCOCC3)c2)cc1NC(=O)c1ccc(OCc2ccccn2)cc1 N

Note, next up: CN1CCN(CCOc2n[nH]c3ncnc(Nc4ccc(OCc5ccccn5)c(Cl)c4)c23)CC1 N

Cool, now CCN(C(=O)Cc1ccc(S(C)(=O)=O)cc1)C1CCN(CC[C@@H](c2ccccc2)N2CCN(S(=O)(=O)C(F)(F)F)CC2)CC1 N

Also check O=C(NCc1ccccc1)c1ccc2cccnc2c1O N

Proceed to Cc1nc2ncnn2c(O)c1CCOC(=O)c1ccccc1F N

Then what about the compound COc1ccccc1CNCCc1cccc(CCNC[C@H](O)c2ccc(O)c3[nH]c(=O)sc23)c1 ? N

Same question, CCN(C(=O)NCc1c(F)cccc1F)C1CCN(CCC(c2ccccc2)c2ccccc2)CC1 this time Y

And the next one, CCCN1CCC(Oc2nccc(Nc3cc(NC(=O)c4cccc(N5CCOCC5)c4)ccc3C)n2)CC1 ? N

Follow-up item: CCCSc1nc(N[C@@H]2C[C@H]2c2ccccc2)c2nnn([C@@H]3C[C@H](OCCO)[C@@H](O)[C@H]3O)c2n1 Y

// next record Cc1cc(Cl)ccc1OC1CCN(C[C@H](O)CNC(=O)c2c[nH]c(=O)cc2C(F)(F)F)CC1 Y

Same read-out for NC(=O)Nc1cc(-c2ccsc2)sc1C(N)=O ? N

Another compound to check: CN(C)CCCOc1ccc(-c2cc(C(N)=O)c(NC(N)=O)s2)cc1 Y

CCn1c(SCC(=O)Nc2cc(C)on2)nnc1-c1ccccc1 ? N

For COc1cccc(S(=O)(=O)c2c(C)n(CC(=O)O)c3ccc(C)cc23)c1 then? Y

Subsequent entry: CCc1ccc(CCNCCCSCCNC[C@H](O)c2ccc(O)c3[nH]c(=O)sc23)cc1 N

Try this compound next: Cc1ccc(S(=O)(=O)Nc2c(C(=O)NC(C)C)c(C)nn2-c2ccccc2)cc1 N

Could you do the same for COc1ccc(COc2nc(Br)cnc2NS(=O)(=O)c2ccc(C)cc2)cc1OCCN(C)C , please? Y

* * *

test_name: in vitro
test_conditions: Beagle, dog, plasma
I'd be grateful if you could share measured fraction unbound at 5 h for these entries.
Please give only the number in your answer, with no unit.

Can you look up the measured fraction unbound at 5 h of CCNC(=O)C[C@@H]1N=C(c2ccc(Cl)cc2)c2cc(OC)ccc2-n2c(C)nnc21 for me? 0.324

And then NC(=O)c1cnc(N[C@H]2CCCNC2)c2cc(-c3ccccc3)sc12 , what is it? 0.0366

Now the same for CN(C)N(C)C(=O)[C@@]1(Cc2ccccc2)CCCN(C(=O)[C@@H](Cc2c[nH]c3ccccc23)NC(=O)C(C)(C)N)C1 0.0633

Entry to check: COc1ccc([C@@H]2Sc3ccccc3N(CCN(C)C)C(=O)[C@@H]2OC(C)=O)cc1 0.349

Same question for COC(=O)C1=C(C)NC(C)=C(C(=O)OCCN(C)Cc2ccccc2)C1c1cccc([N+](=O)[O-])c1 (stereo not given) please. 0.004

Further, for N#Cc1cccc(-c2cc(Cl)ccc2OCC(=O)O)c1 ? 0.0234

Try the compound Cc1ccc(C(=O)c2ccc(CC(=O)O)n2C)cc1 0.0477

What would you report for COC[C@H](O)Cn1c(=O)cnn(-c2ccc(Cl)c(C(=O)NCC3(O)CCCCCC3)c2)c1=O ? 0.552

Next entry: COc1ccc2ncc(F)c(CCN3CCC(NCc4cc5c(cn4)OCCO5)CC3)c2n1 0.0968

// repeat for CC(C)Oc1cc(Nc2nc3c(cc2F)ncn3[C@@H](CO)c2ccc(F)cn2)n[nH]1 and report 0.249

Try this compound next: CCC(=O)O[C@]1(C(=O)SCF)[C@H](C)C[C@H]2[C@@H]3C[C@H](F)C4=CC(=O)C=C[C@]4(C)[C@@]3(F)[C@@H](O)C[C@@]21C [FLUTICASONE PROPIONATE] 0.0116

Cc1ccc2c(c1)c(-c1ccnc3cc(Cl)ccc13)c(C)n2CC(=O)O , same question. 0.0035

Again, but for Cc1nn(C2CCOCC2)c(NS(=O)(=O)c2ccc(C3CC3)cc2)c1C(=O)N[C@@H](C)C(C)(C)C 0.107

Now try O=c1cc(N2CCOCC2)nc2n(Cc3cccc4ccccc34)ccn12 . 0.0676

Now this one: CCOC(=O)C1=C(C)NC(C)=C(C(=O)OC)C1c1cccc([N+](=O)[O-])c1 (stereo not given) 0.0108

// repeat for CC(C)C[C@H](CO)Nc1nc(S[C@@H](C)c2ccccc2F)nc2nc(N)sc12 and report 0.002

Same read-out for COc1ccnc(NC2CCN(C(=O)c3ccc(C#N)cc3)CC2)c1 ? 0.0532

COc1ncc(-c2cccc3c2C[C@H](NC(=O)c2ccc(COCC(F)(F)F)nc2)CO3)cn1 , same question. 0.0705

Can you check N#Cc1cc(F)c(Cl)cc1O[C@H](CCN)c1ccccc1 next? 0.0457

What do we get for O=c1[nH]c2ccccc2n1CCCN1CCC(n2c(=O)[nH]c3cc(Cl)ccc32)CC1 ? 0.0872

Follow-up entry: CC(C)(C)NC(=O)NCCN1CCOC(CNC(=O)c2cc(Cl)cc(Cl)c2)C1 (stereo not given) 0.0818

Likewise for C#CC[C@@H](C(=O)N[C@H](/C=C/C(=O)OCC)C[C@@H]1CCNC1=O)n1cccc(NC(=O)c2cc(C)on2)c1=O ? 0.535

What about C[C@H]1CN(Cc2cc(Cl)ccc2OCC(=O)O)CCN1C(=O)Cc1ccc(Cl)cc1 ? 0.0262

Follow-up entry: Cc1cc(C(C)Nc2ccccc2)c2nc(N3CCOCC3)cc(=O)n2c1 (stereo not given) 0.0606

And then O=C(O)C[C@H](O)C[C@H](O)/C=C/c1c(C2CC2)nc2ccccc2c1-c1ccc(F)cc1 , what is it? 0.0293

Next compound up: CN(C)CCN1CCN(c2cc(C(=O)NC[C@H]3CC[C@H](CNC(=O)OC(C)(C)C)CC3)c3ccccc3n2)CC1 0.0293

Now try CC(C)(C)NC(=O)NCCN1CC(NC(=O)c2cc(Cl)cc(Cl)c2)C1 . 0.0784

Same again, this time with O=C(O)CCn1c2c(c3ccccc31)C[C@H](NS(=O)(=O)c1ccc(F)cc1)CC2 0.0437

Then what about the compound CCCSc1nc(N[C@@H]2C[C@H]2c2ccccc2)c2nnn([C@@H]3C[C@H](O)[C@@H](O)[C@H]3O)c2n1 ? 0.0066

Then CC(C)Cc1nn(C)c(=O)c2c(SCCCO)n(Cc3cccc4ccccc34)cc12 ? 0.0013

Then CC[C@H](C)C(=O)O[C@H]1C[C@H](O)C=C2C=C[C@H](C)[C@H](CC[C@@H](O)C[C@@H](O)CC(=O)O)[C@H]21 ? 0.608

Would you kindly repeat that for CCCNC(c1cccnc1)P(=O)(c1ccccc1)c1ccccc1 (stereo not given) ? 0.197

Same again, this time with N#Cc1ccc(C[C@@H](C(=O)O)N2CCC(CN3CCC(Oc4ccc(Cl)c(Cl)c4)CC3)CC2)cc1 0.166

Another compound: Cc1ccc2c(c1)c(-c1ccnc3c(Cl)cccc13)c(C)n2CC(=O)O 0.0041

Also need O=C(CC1CCN(Cc2ccn(-c3ccc(C(F)(F)F)cn3)c2)CC1)NC(c1ccc(F)cc1)c1ccc(F)cc1 , thanks. 0.004

Origin of the recorded values: ChEMBL document CHEMBL3301361
